Target: human CB1 receptor (Homo sapiens)
Construct: expressed in transfected cells; b94 says CHO for CB1
Sequence (P21554 whole entry): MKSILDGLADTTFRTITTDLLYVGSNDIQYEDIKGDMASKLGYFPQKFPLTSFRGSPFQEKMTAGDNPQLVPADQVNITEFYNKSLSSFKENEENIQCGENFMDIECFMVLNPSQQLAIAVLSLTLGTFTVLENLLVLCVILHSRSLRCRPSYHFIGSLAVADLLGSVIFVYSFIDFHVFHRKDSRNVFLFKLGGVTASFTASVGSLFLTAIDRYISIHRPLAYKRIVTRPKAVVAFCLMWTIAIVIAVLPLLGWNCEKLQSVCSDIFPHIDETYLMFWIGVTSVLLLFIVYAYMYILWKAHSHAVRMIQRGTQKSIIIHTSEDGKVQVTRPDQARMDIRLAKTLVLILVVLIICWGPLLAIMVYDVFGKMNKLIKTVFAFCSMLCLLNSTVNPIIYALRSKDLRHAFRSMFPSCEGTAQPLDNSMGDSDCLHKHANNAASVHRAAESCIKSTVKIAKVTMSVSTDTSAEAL
Assay: CB1 receptor binding, [3H]CP55,940 displacement in membranes of transfected cells
Conditions: CB1 Ki
pKi: −log10 of the molar value.
# key: entry, value: pKi

{"molecule_smiles": "CC1=CC[C@@H]2[C@@H](C1)c1c(O)cc(C(C)(C)CCCCC(=O)N3CCCC3)cc1OC2(C)C", "subject_of_test": "human CB1 receptor (Homo sapiens)", "pKi": 8.55}
{"molecule_smiles": "CC1=CC[C@@H]2[C@@H](C1)c1c(O)cc(C(C)(C)CCCCn3ccnc3C)cc1OC2(C)C", "subject_of_test": "human CB1 receptor (Homo sapiens)", "pKi": 7.86}
{"molecule_smiles": "CC1=CC[C@@H]2[C@@H](C1)c1c(O)cc(C(C)(C)CCCCC(=O)NN3CCCC3)cc1OC2(C)C", "subject_of_test": "human CB1 receptor (Homo sapiens)", "pKi": 7.63}

====

Target: human CB1 receptor (Homo sapiens)
Construct: expressed in transfected cells; b94 says CHO for CB1
Experiment: [35S]GTPγS binding assay in membranes of CB1 expressing cells
Format: biochemical
Details: CB1 EC50, [35S]GTPγS binding; mean±SEM

{"compound": "CC1=CC[C@@H]2[C@@H](C1)c1c(O)cc(C(C)(C)CCCCn3cccn3)cc1OC2(C)C", "subject_of_test": "human CB1 receptor (Homo sapiens)", "EC50 [nM]": 4.03}
{"compound": "CC1=CC[C@@H]2[C@@H](C1)c1c(O)cc(C(C)(C)CCCCC(=O)N3CCCCCC3)cc1OC2(C)C", "subject_of_test": "human CB1 receptor (Homo sapiens)", "EC50 [nM]": 23.2}
{"compound": "CC1=CC[C@@H]2[C@@H](C1)c1c(O)cc(C(C)(C)CCCCNC(=O)N3CCOCC3)cc1OC2(C)C [O-2619, Morpholino-1-carboxylic acid amide]", "subject_of_test": "human CB1 receptor (Homo sapiens)", "EC50 [nM]": 86}
{"compound": "CC1=CC[C@@H]2[C@@H](C1)c1c(O)cc(C(C)(C)CCCCn3ccnc3C)cc1OC2(C)C", "subject_of_test": "human CB1 receptor (Homo sapiens)", "EC50 [nM]": 82.9}
{"compound": "CC1=CC[C@@H]2[C@@H](C1)c1c(O)cc(C(C)(C)CCCCC(=O)N3CCOCC3)cc1OC2(C)C", "subject_of_test": "human CB1 receptor (Homo sapiens)", "EC50 [nM]": 5.88}
{"compound": "CNC(=O)CCCCC(C)(C)c1cc(O)c2c(c1)OC(C)(C)[C@@H]1CC=C(C)C[C@@H]21", "subject_of_test": "human CB1 receptor (Homo sapiens)", "EC50 [nM]": 64.2}
{"compound": "CC1=CC[C@@H]2[C@@H](C1)c1c(O)cc(C(C)(C)CCCCn3cncn3)cc1OC2(C)C", "subject_of_test": "human CB1 receptor (Homo sapiens)", "EC50 [nM]": 36.8}
{"compound": "CC1=CC[C@@H]2[C@@H](C1)c1c(O)cc(C(C)(C)CCCCC(=O)NN3CCCC3)cc1OC2(C)C", "subject_of_test": "human CB1 receptor (Homo sapiens)", "EC50 [nM]": 81.1}
{"compound": "CC1=CC[C@@H]2[C@@H](C1)c1c(O)cc(C(C)(C)CCCCC(N)=O)cc1OC2(C)C", "subject_of_test": "human CB1 receptor (Homo sapiens)", "EC50 [nM]": 42}
{"compound": "CC1=CC[C@@H]2[C@@H](C1)c1c(O)cc(C(C)(C)CCCCC(=O)NN3CCOCC3)cc1OC2(C)C", "subject_of_test": "human CB1 receptor (Homo sapiens)", "EC50 [nM]": 39.7}
{"compound": "CC1=CC[C@@H]2[C@@H](C1)c1c(O)cc(C(C)(C)CCCCC(=O)N3CCCC3)cc1OC2(C)C", "subject_of_test": "human CB1 receptor (Homo sapiens)", "EC50 [nM]": 275}
{"compound": "CC1=CC[C@@H]2[C@@H](C1)c1c(O)cc(C(C)(C)CCCCC(=O)NN3CCCCCC3)cc1OC2(C)C", "subject_of_test": "human CB1 receptor (Homo sapiens)", "EC50 [nM]": 86.6}
{"compound": "CC1=CC[C@@H]2[C@@H](C1)c1c(O)cc(C(C)(C)CCCCC(=O)N3CCCCC3)cc1OC2(C)C", "subject_of_test": "human CB1 receptor (Homo sapiens)", "EC50 [nM]": 13.5}

Source listed as patent US20080064679A1.
